From: paper PMC8879095

- test.summary: Antibiotic concentrations in porcine oral fluid after intramuscular application (UHPLC-MS/MS)
- Assay type: in vivo
- measurement.context: male, (Landrace × Yorkshire) × Duroc crossbred (DanBred sows), pig, intramuscular; oral fluid, pigs, i.m., time 15 d, posttreatment; read-out: Avarage Concentrations in oral fluid
# log10 concentration at 15 d annotations
measured.parameter: log10 concentration at 15 d (log10 of the value in ng/mL)

structure.smiles: CC[C@H]1OC(=O)C[C@@H](O)[C@H](C)[C@@H](O[C@@H]2O[C@H](C)[C@@H](O[C@H]3C[C@@](C)(O)[C@@H](O)[C@H](C)O3)[C@H](N(C)C)[C@H]2O)[C@@H](CC=O)C[C@@H](C)C(=O)/C=C/C(C)=C/[C@@H]1CO[C@@H]1O[C@H](C)[C@@H](O)[C@@H](OC)[C@H]1OC
measurement: 1.28

structure.smiles: COc1cc(Cc2cnc(N)nc2N)cc(OC)c1OC
measurement: 1.50

structure.smiles: C=C[C@]1(C)C[C@@H](OC(=O)CSCCN(CC)CC)[C@]2(C)[C@H](C)CC[C@]3(CCC(=O)[C@H]32)[C@@H](C)[C@@H]1O
measurement: 2.19

structure.smiles: COc1ncnc(NS(=O)(=O)c2ccc(N)cc2)c1OC
measurement: 1.84

structure.smiles: CCC[C@@H]1C[C@@H](C(=O)N[C@@H]([C@H]2O[C@H](SC)[C@H](O)[C@@H](O)[C@H]2O)[C@@H](C)O)N(C)C1
measurement: 2.44
